# subject.of.test: EGFR Δ746-750 mutant (Homo sapiens (Human), UniProt P00533, DEL746-750)
# Sequence (P00533 other isoform, or with tags, fused parts or gaps del 1-668/del 746-750 limits assumed): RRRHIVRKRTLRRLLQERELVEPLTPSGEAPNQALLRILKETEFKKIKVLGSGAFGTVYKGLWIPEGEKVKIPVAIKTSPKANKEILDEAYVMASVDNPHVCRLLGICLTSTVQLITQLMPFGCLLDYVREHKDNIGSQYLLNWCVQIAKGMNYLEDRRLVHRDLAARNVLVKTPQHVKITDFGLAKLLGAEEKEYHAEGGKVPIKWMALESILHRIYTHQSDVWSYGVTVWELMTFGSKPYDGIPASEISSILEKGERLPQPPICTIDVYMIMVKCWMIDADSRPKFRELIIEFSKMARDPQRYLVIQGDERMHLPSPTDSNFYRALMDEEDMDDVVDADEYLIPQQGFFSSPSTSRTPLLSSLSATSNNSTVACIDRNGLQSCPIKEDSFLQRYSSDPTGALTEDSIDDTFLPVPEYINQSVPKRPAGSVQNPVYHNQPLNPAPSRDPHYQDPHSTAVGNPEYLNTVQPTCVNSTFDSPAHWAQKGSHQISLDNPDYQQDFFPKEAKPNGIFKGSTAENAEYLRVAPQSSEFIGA
# procedure.details: HotSpot radiometric kinase assay, EGFR Δ746-750 mutant
# condition.parameters: 10 μM ATP
value.kind: pIC50
In plain terms, pIC50 is the concentration in mol/L turned into minus its base-10 logarithm.

Given Cc1nn(CCO)c2c1/C=C/c1n[nH]c3ccc(cc13)-c1cnn(C)c1O[C@@H](C)CN(C)C2 , respond with its pIC50.
8.97

Report measured pIC50; entry is Cc1c2c(nn1[C@H]1CCN(C)C[C@@H]1O)OCCCOc1c(cnn1C)-c1ccc3[nH]nc(c3c1)/C=C/2 (racemic)
7.46

Look up pIC50 of Cc1c2c(nn1C)/C=C/c1n[nH]c3ccc(cc13)-c1cnn(C)c1O[C@@H](C)CN(C)C2 and report it.
7.79

Data provenance is patent US20250353864A1.
